System: KB
test: Cytotoxicity against human KB cells by SRB assay
Type: functional
run.conditions: read-out: ED50 (the source's name)
EC50 for assorted compounds
parameter.measured: EC50 (µg/mL)

> print(dat)
                                   compound  parameter.measured  relation.sign  numeric.value
1  O=C(/C=C/c1ccccc1)O[C@H](c1ccccc1)[C@H]1O[C@@H]2CC(=O)O[C@@H]2[C@H]1O [(+)-CRASSALACTONE C]                EC50              >              5
2  O=C1C=C[C@H](OC(=O)/C=C/c2ccccc2)[C@H]([C@H](O)[C@H](O)c2ccccc2)O1                EC50              =            1.7
3  O=C1C=C[C@H](OC(=O)/C=C/c2ccccc2)[C@H]([C@H](OC(=O)/C=C/c2ccccc2)[C@H](OC(=O)/C=C/c2ccccc2)c2ccccc2)O1                EC50              >              5
4  O=C(/C=C/c1ccccc1)O[C@@H]1[C@H]([C@@H](O)c2ccccc2)O[C@H]2CC(=O)O[C@@H]12 [(+)-CRASSALACTONE B]                EC50              >              5
5  Cc1c2ccncc2c(C)c2c1[nH]c1ccccc12 [ELLIPTECINE]                EC50              =           0.65
6  O=C1C=C[C@]2(C[C@H](O)[C@@H](c3ccccc3)O2)O1                EC50              =            3.3
7  COc1c(O)cc2c3c(cc4ccccc4c13)NC2=O [ARISTOLACTAM AII]                EC50              >              5
